Cited source for all entries: the supplement of paper PMC4466140

testedOn: SpSla1-D3
procedureText: SPOT peptide array binding signal intensity (averaged, normalized) (arbitrary units (background-subtracted, floor 0; scale differs between SH3 domains)); higher = stronger binding of the SH3 domain to the peptide
endpoint: SPOT peptide array binding signal intensity
Provide a numeric answer; units are not to be included.

Known results for binders:
[[record]]
binder = "EQEEIAPSLPSRNSI"
measuredresult = 1

[[record]]
binder = "RPVPRRPSQPLNTLS"
measuredresult = 2

[[record]]
binder = "RSKRLFPVRPMATAH"
measuredresult = 13

[[record]]
binder = "NFKRLLPRDPSEKSS"
measuredresult = 3


// SPOT peptide array binding signal intensity value for NMLKKKPLKKPLKRF : 106
